TESTED SYSTEM: UniProt:P45452
ASSAY METHOD TEXT: Inhibition of MMP13 in human U2OS cells by peptide microarray-based fluorescence assay
EXPERIMENTAL READOUT: IC50 (µM)
Numeric only. Scale: µM

[
  {
    "MOLECULE": "O=C(/C=C/c1ccc(O)cc1)c1ccc(O)cc1O",
    "TESTED SYSTEM": "UniProt:P45452",
    "IC50 (µM)": 0.014
  }
]

Could you now look at the following molecule, please?
-- ask For the molecule COc1cc(C2Oc3ccc([C@H]4Oc5cc(O)cc(O)c5C(=O)[C@@H]4O)cc3OC2CO)ccc1O (some centres not stated) , what IC50 is on record?
-- reply 0.25
